Test Method Notes: Dynamic solubility experiment at 37° C. in water, SGF, FaSSIF and FeSSIF
Experimental Setup: SGF, 37 °C, pH 1.8, simulated gastric fluid, thermodynamic from solid
Value Kind: solubility at 24 h (µg/mL)
Express the result in µg/mL but write the number alone.

[in] Please give the measured solubility at 24 h for this compound: C[C@H](NC(=O)c1c(C(F)F)nn(C)c1Oc1cccc(C(C)(F)F)c1)c1ccc(C(=O)O)cc1 [Free acid crystal form A]
[out] 40

----------
Test Method Notes: Dynamic solubility experiment at 37° C. in water, SGF, FaSSIF and FeSSIF
Experimental Setup: SGF, 37 °C, pH 1.8, simulated gastric fluid, thermodynamic from solid
Value Kind: solubility at 2 h
# include the unit after the value

[in] Please give the measured solubility at 2 h for this compound: C[C@H](NC(=O)c1c(C(F)F)nn(C)c1Oc1cccc(C(C)(F)F)c1)c1ccc(C(=O)O)cc1 [Free acid crystal form A]
[out] 40 µg/mL

----------
Test Method Notes: Dynamic solubility experiment at 37° C. in water, SGF, FaSSIF and FeSSIF
Experimental Setup: SGF, 37 °C, pH 1.8, simulated gastric fluid, thermodynamic from solid
Value Kind: solubility at 4 h
# include the unit after the value

[in] Please give the measured solubility at 4 h for this compound: C[C@H](NC(=O)c1c(C(F)F)nn(C)c1Oc1cccc(C(C)(F)F)c1)c1ccc(C(=O)O)cc1 [Free acid crystal form A]
[out] 50 µg/mL

----------
Test Method Notes: Dynamic solubility experiment at 37° C. in water, SGF, FaSSIF and FeSSIF
Experimental Setup: SGF, 37 °C, pH 1.8, simulated gastric fluid, thermodynamic from solid
Value Kind: solubility at 1 h
# include the unit after the value

[in] Please give the measured solubility at 1 h for this compound: C[C@H](NC(=O)c1c(C(F)F)nn(C)c1Oc1cccc(C(C)(F)F)c1)c1ccc(C(=O)O)cc1 [Free acid crystal form A]
[out] 40 µg/mL

----------
Test Method Notes: Dynamic solubility experiment at 37° C. in water, SGF, FaSSIF and FeSSIF
Experimental Setup: water, 37 °C, thermodynamic from solid
Value Kind: solubility at 24 h (µg/mL)
Express the result in µg/mL but write the number alone.

[in] Please give the measured solubility at 24 h for this compound: C[C@H](NC(=O)c1c(C(F)F)nn(C)c1Oc1cccc(C(C)(F)F)c1)c1ccc(C(=O)O)cc1 [Free acid crystal form A]
[out] 130

----------
Test Method Notes: Dynamic solubility experiment at 37° C. in water, SGF, FaSSIF and FeSSIF
Experimental Setup: water, 37 °C, thermodynamic from solid
Value Kind: solubility at 1 h (µg/mL)
Express the result in µg/mL but write the number alone.

[in] Please give the measured solubility at 1 h for this compound: C[C@H](NC(=O)c1c(C(F)F)nn(C)c1Oc1cccc(C(C)(F)F)c1)c1ccc(C(=O)O)cc1 [Free acid crystal form A]
[out] 80

----------
Test Method Notes: Dynamic solubility experiment at 37° C. in water, SGF, FaSSIF and FeSSIF
Experimental Setup: FaSSIF, 37 °C, pH 6.5, fassif, thermodynamic from solid
Value Kind: solubility at 24 h (µg/mL)
Express the result in µg/mL but write the number alone.

[in] Please give the measured solubility at 24 h for this compound: C[C@H](NC(=O)c1c(C(F)F)nn(C)c1Oc1cccc(C(C)(F)F)c1)c1ccc(C(=O)O)cc1 [Free acid crystal form A]
[out] 1590

----------
Test Method Notes: Dynamic solubility experiment at 37° C. in water, SGF, FaSSIF and FeSSIF
Experimental Setup: FeSSIF, 37 °C, pH 5, fessif, thermodynamic from solid
Value Kind: solubility at 24 h (µg/mL)
Express the result in µg/mL but write the number alone.

[in] Please give the measured solubility at 24 h for this compound: C[C@H](NC(=O)c1c(C(F)F)nn(C)c1Oc1cccc(C(C)(F)F)c1)c1ccc(C(=O)O)cc1 [Free acid crystal form A]
[out] 210

----------
Test Method Notes: Dynamic solubility experiment at 37° C. in water, SGF, FaSSIF and FeSSIF
Experimental Setup: FeSSIF, 37 °C, pH 5, fessif, thermodynamic from solid
Value Kind: solubility at 1 h (mg/mL)
Express the result in mg/mL but write the number alone.

[in] Please give the measured solubility at 1 h for this compound: C[C@H](NC(=O)c1c(C(F)F)nn(C)c1Oc1cccc(C(C)(F)F)c1)c1ccc(C(=O)O)cc1 [Free acid crystal form A]
[out] 0.21

----------
Test Method Notes: Dynamic solubility experiment at 37° C. in water, SGF, FaSSIF and FeSSIF
Experimental Setup: FaSSIF, 37 °C, pH 6.5, fassif, thermodynamic from solid
Value Kind: solubility at 2 h (µg/mL)
Express the result in µg/mL but write the number alone.

[in] Please give the measured solubility at 2 h for this compound: C[C@H](NC(=O)c1c(C(F)F)nn(C)c1Oc1cccc(C(C)(F)F)c1)c1ccc(C(=O)O)cc1 [Free acid crystal form A]
[out] 1830

----------
Test Method Notes: Dynamic solubility experiment at 37° C. in water, SGF, FaSSIF and FeSSIF
Experimental Setup: FeSSIF, 37 °C, pH 5, fessif, thermodynamic from solid
Value Kind: solubility at 4 h (µg/mL)
Express the result in µg/mL but write the number alone.

[in] Please give the measured solubility at 4 h for this molecule: C[C@H](NC(=O)c1c(C(F)F)nn(C)c1Oc1cccc(C(C)(F)F)c1)c1ccc(C(=O)O)cc1 [Free acid crystal form A]
[out] 220

----------
Test Method Notes: Dynamic solubility experiment at 37° C. in water, SGF, FaSSIF and FeSSIF
Experimental Setup: FaSSIF, 37 °C, pH 6.5, fassif, thermodynamic from solid
Value Kind: solubility at 4 h (µg/mL)
Express the result in µg/mL but write the number alone.

[in] Please give the measured solubility at 4 h for this molecule: C[C@H](NC(=O)c1c(C(F)F)nn(C)c1Oc1cccc(C(C)(F)F)c1)c1ccc(C(=O)O)cc1 [Free acid crystal form A]
[out] 1860

----------
Test Method Notes: Dynamic solubility experiment at 37° C. in water, SGF, FaSSIF and FeSSIF;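 note: at each sampling time, filtrate assayed by HPLC for concentration and for pH, centrifuged solid checked by XRPD, media SGF at pH 1.8, FaSSIF 6.5, FeSSIF 5.0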
Experimental Setup: water, 37 °C, thermodynamic from solid
Value Kind: solubility at 2 h (mg/mL)
Express the result in mg/mL but write the number alone.

[in] Please give the measured solubility at 2 h for this compound: C[C@H](NC(=O)c1c(C(F)F)nn(C)c1Oc1cccc(C(C)(F)F)c1)c1ccc(C(=O)O)cc1 [Free acid crystal form A]
[out] 0.08
